study-target: Peroxisome proliferator-activated receptor gamma (Homo sapiens)
assay-info: ATG_PPARg_TRANS: Attagene TRANS-FACTORIAL HepG2 Assay for human Peroxisome Proliferator-activated Receptor-gamma (PPARg) (AID 2283007)
Experimental: ATG_TRANS is a cell-based, multiplexed-readout assay that uses HepG2, a human liver cell line, with measurements taken at 24 hours after chemical dosing in a 24-well plate.ATG_PPARg_TRANS is one of 30 assay component(s) measured or calculated from the ATG_TRANS assay. […] This assay endpoint, ATG_PPARg_TRANS, was analyzed in the positive analysis fitting direction relative to DMSO as the negative control and baseline of activity. […]
Records with an inconclusive call do not appear. Active and inactive are the calls of the source. How the source made its calls: active means hit-call score of the fitted dose curve at least 0.9, where 1 is the maximum; inconclusive means response in the unintended direction; inactive means score below 0.9.
Outcome codes: active, inactive

- compound: "O=C(O)C=C(C(F)(F)F)C(F)(F)F"
  class-name: "inactive"
- compound: "CCN(Cc1cccc(S(=O)(=O)O)c1)c1ccc(C(=C2C=CC(=[N+](CC)Cc3cccc(S(=O)(=O)O)c3)C=C2)c2ccc(O)cc2S(=O)(=O)[O-])cc1"
  class-name: "inactive"
- compound: "OCC(F)(F)C(F)(F)C(F)(F)C(F)F"
  class-name: "inactive"
- compound: "CCCCC(CC)COP(=O)(O)OCC(CC)CCCC (configuration not stated)"
  class-name: "active"
- compound: "CC(Cc1ccc(O)c(O)c1)C(C)Cc1ccc(O)c(O)c1 (configuration not stated)"
  class-name: "active"
- compound: "Nc1ccc(S(=O)(=O)Nc2nccs2)cc1"
  class-name: "inactive"
- compound: "OCCCC(F)(F)C(F)(F)C(F)(F)C(F)(F)C(F)(F)C(F)(F)C(F)(F)F"
  class-name: "inactive"
- compound: "CO[Si](OC)(c1ccccc1)c1ccccc1"
  class-name: "inactive"
- compound: "FC(F)(I)C(F)(F)C(F)(F)C(F)(F)I"
  class-name: "active"
- compound: "OCC(F)(F)C(F)(F)C(F)(F)F"
  class-name: "inactive"
- compound: "Nc1ccc([N+](=O)[O-])cc1O"
  class-name: "inactive"
- compound: "COC(=O)C1CCC(C(=O)OC)CC1 (configuration not stated)"
  class-name: "inactive"

----------
assay-info: ATG_NRF2_ARE_CIS: Attagene CIS-FACTORIAL HepG2 Assay for human Nuclear Factor Erythroid 2 Related Factor 2 (NFR2) response to Antioxidant Response Elements (ARE) (AID 2282992)
test-conditions: HepG2 Attagene ARE/NRF2 reporter, transcription factor activity; actives raise or lower the signal
Experimental: ATG_CIS is a cell-based, multiplexed-readout assay that uses HepG2, a human liver cell line, with measurements taken at 24 hours after chemical dosing in a 24-well plate.ATG_NRF2_ARE_CIS is one of 52 assay component(s) measured or calculated from the ATG_CIS assay. […] This assay endpoint, ATG_NRF2_ARE_CIS, was analyzed with bidirectional fitting relative to DMSO as the negative control and baseline of activity. […]
Activity calls are given as the source filed them. How the source made its calls: active means hit-call score of the fitted dose curve at least 0.9, where 1 is the maximum; inactive means score below 0.9.
Outcome codes: active, inactive

- compound: "OCC(F)(F)C(F)(F)C(F)(F)F"
  class-name: "inactive"
- compound: "CO[Si](OC)(c1ccccc1)c1ccccc1"
  class-name: "inactive"
- compound: "Nc1cc(Cl)c(N)c(Cl)c1"
  class-name: "active"
- compound: "CC(Cc1ccc(O)c(O)c1)C(C)Cc1ccc(O)c(O)c1 (configuration not stated)"
  class-name: "active"
- compound: "OCC(F)(F)C(F)(F)C(F)(F)C(F)(F)C(F)(F)C(F)F"
  class-name: "inactive"
- compound: "CCCCNc1ccccc1"
  class-name: "inactive"
- compound: "O=P(O)(O)OCCC(F)(F)C(F)(F)C(F)(F)C(F)(F)C(F)(F)C(F)(F)F"
  class-name: "inactive"
- compound: "FC(F)(F)C(F)(F)C(F)(F)C(F)(F)C(F)(F)CCI"
  class-name: "active"
- compound: "O=C(Cl)C(F)(F)C(F)(F)C(F)(F)C(F)(F)C(F)(F)C(F)(F)C(F)(F)C(F)(F)F"
  class-name: "active"
- compound: "CC(C)c1ccccc1N"
  class-name: "inactive"
- compound: "OCCCC(F)(F)C(F)(F)C(F)(F)F"
  class-name: "inactive"
- compound: "FC(F)(F)C(F)(F)C(F)(F)C(F)(F)C(F)(F)C(F)(F)C(F)(F)C(F)(F)CCS"
  class-name: "inactive"
